# Test system: Nucleic Acid
# Procedure Text: Displacement of thiazole orange from synthetic oligo 17bp DNA duplex by fluorescence displacement assay
# Type: nucleic-acid assay
Grouping by measured K is done with the following cut points: category 1: < 0.5 ×10⁵ /M; category 2: ≥ 0.5 ×10⁵ /M and < 1 ×10⁵ /M; category 3: ≥ 1 ×10⁵ /M

Challenge: Which bin, given its K, does O=C(NCCN1CCCC1)c1cc(=O)c2ccc3ccccc3c2[nH]1 occupy?
Response given: category 1

Challenge: Please indicate the class for O=C(NCCN1CCCC1)c1c[nH]c2c(ccc3ccccc32)c1=O based on its K.
Response given: category 1

Challenge: Any idea which band O=C(NCCN1CCNCC1)c1cc(=O)c2ccc3ccccc3c2[nH]1 is in?
Response given: category 3

Challenge: Which K band matches CN(C)c1ccc(NC(=O)c2cc(=O)c3ccc4ccccc4c3[nH]2)cc1 ?
Response given: category 2

Challenge: Band of O=C(NCCN1CCCCC1)c1cc(=O)c2ccc3ccccc3c2[nH]1 ?
Response given: category 3

Challenge: Bin? O=C(Nc1ccncc1)c1c[nH]c2c(ccc3ccccc32)c1=O
Response given: category 3

Challenge: Which band does O=C(NCCN1CCCCC1)c1c[nH]c2c(ccc3ccccc32)c1=O fall in?
Response given: category 1

Challenge: Hi there! Could you help me figure out the category for O=C(Nc1ccccc1)c1c[nH]c2c(ccc3ccccc32)c1=O please?
Response given: category 3

Challenge: Using the reported K, which band applies to CN(C)c1ccc(NC(=O)c2c[nH]c3c(ccc4ccccc43)c2=O)cc1 ?
Response given: category 2

Challenge: Band assignment needed for O=C(NCCN1CCNCC1)c1c[nH]c2c(ccc3ccccc32)c1=O please.
Response given: category 2
